Reported IC10 haemolysis is given for each of the following compounds.
# Test system: human erythrocytes
# EXPERIMENTAL PROTOCOL: in vitro
# Format: cell-based
# PROTOCOL CONDITIONS: human erythrocytes
Peptide text beside a SMILES is read from it.

COMPOUND: CC(C)C[C@@H](NC(=O)[C@@H](Cc1ccc2ccccc2c1)NC(=O)[C@@H](Cc1ccccc1)NC(=O)[C@H](N)Cc1ccc2ccccc2c1)C(=O)N[C@@H](CCCCN)C(=O)N[C@@H](CCCCN)C(=O)N[C@@H](CCCCN)C(N)=O [Compound 4] (HELM PEPTIDE1{[N[C@H](Cc1ccc2ccccc2c1)C(=O)[*:2]].[dF].[O=C([C@@H](Cc1ccc2ccccc2c1)N[*:1])[*:2]].[dL].K.K.K.[am]}$$$$V2.0)
COMPARISON OPERATOR: >
IC10 haemolysis, µM: 150
//
COMPOUND: CCCC[C@H](NC(=O)[C@H](CCCCN)NC(=O)[C@H](CCCCN)NC(=O)[C@@H](N)CCCCN)C(=O)N[C@@H](Cc1ccc2ccccc2c1)C(=O)N[C@@H](Cc1ccc(O)cc1)C(=O)N[C@@H](Cc1ccc2ccccc2c1)C(N)=O [Compound 22] (HELM PEPTIDE1{K.K.K.[Nle].[O=C([C@H](Cc1ccc2ccccc2c1)N[*:1])[*:2]].Y.[O=C([C@H](Cc1ccc2ccccc2c1)N[*:1])[*:2]].[am]}$$$$V2.0)
COMPARISON OPERATOR: =
IC10 haemolysis, µM: 88.3
//
COMPOUND: CC(C)C[C@H](NC(=O)[C@H](CCCCN)NC(=O)[C@H](CCCCN)NC(=O)[C@@H](N)CCCCN)C(=O)N[C@@H](Cc1cccc2ccccc12)C(=O)N[C@@H](Cc1ccc(O)cc1)C(=O)N[C@@H](Cc1cccc2ccccc12)C(N)=O [Compound 19, Lys-Lys-Lys-Leu(1-Nal)Ala-Tyr-(1-Nal)Ala] (HELM PEPTIDE1{K.K.K.L.[O=C([C@H](Cc1cccc2ccccc12)N[*:1])[*:2]].Y.[O=C([C@H](Cc1cccc2ccccc12)N[*:1])[*:2]].[am]}$$$$V2.0)
COMPARISON OPERATOR: =
IC10 haemolysis, µM: 13.5

* * *

# Test system: canine erythrocytes
# EXPERIMENTAL PROTOCOL: in vitro
# Format: cell-based, dog
# PROTOCOL CONDITIONS: red cells of canine
pIC50: −log10 of the molar value. Square brackets hold non-standard residues; d marks the D form. Peptide text beside a SMILES is read from it. 2Nal = N[C@@H](Cc1ccc2ccccc2c1)C(=O)O; Nlys = NCCCCNCC(=O)O
MEASUREMENT KIND: pIC50

COMPOUND: CC(C)C[C@@H](NC(=O)[C@H](CCCCN)NC(=O)[C@H](CCCCN)NC(=O)[C@@H](N)CCCCN)C(=O)N[C@H](Cc1cccc2ccccc12)C(=O)N[C@H](Cc1ccccc1)C(=O)N[C@H](Cc1cccc2ccccc12)C(N)=O [Compound 11] (HELM PEPTIDE1{K.K.K.[dL].[O=C([C@@H](Cc1cccc2ccccc12)N[*:1])[*:2]].[dF].[O=C([C@@H](Cc1cccc2ccccc12)N[*:1])[*:2]].[am]}$$$$V2.0)
VALUE: < 3.82
--
COMPOUND: CC(C)C[C@H](NC(=O)[C@H](CCCCN)NC(=O)[C@H](Cc1ccc2ccccc2c1)NC(=O)[C@H](Cc1ccccc1)NC(=O)[C@@H](N)Cc1ccc2ccccc2c1)C(=O)N[C@@H](CCCCN)C(=O)N[C@@H](CCCCN)C(N)=O [Compound 13] (HELM PEPTIDE1{[N[C@@H](Cc1ccc2ccccc2c1)C(=O)[*:2]].F.[O=C([C@H](Cc1ccc2ccccc2c1)N[*:1])[*:2]].K.L.K.K.[am]}$$$$V2.0; N-terminus assumed)
VALUE: < 3.82
--
COMPOUND: CC(C)C[C@@H](NC(=O)[C@@H](Cc1ccc2ccccc2c1)NC(=O)[C@@H](Cc1ccccc1)NC(=O)[C@H](N)Cc1ccc2ccccc2c1)C(=O)N[C@@H](CCCCN)C(=O)N[C@@H](CCCCN)C(=O)N[C@@H](CCCCN)C(N)=O [Compound 4] (HELM PEPTIDE1{[N[C@H](Cc1ccc2ccccc2c1)C(=O)[*:2]].[dF].[O=C([C@@H](Cc1ccc2ccccc2c1)N[*:1])[*:2]].[dL].K.K.K.[am]}$$$$V2.0)
VALUE: < 3.82
--
COMPOUND: CC(C)C[C@H](NC(=O)[C@H](CCCCN)NC(=O)[C@@H](N)CCCCN)C(=O)N[C@@H](CCCCN)C(=O)N[C@@H](Cc1cccc2ccccc12)C(=O)N[C@@H](Cc1ccccc1)C(=O)N[C@@H](Cc1cccc2ccccc12)C(N)=O [Compound 6] (HELM PEPTIDE1{K.K.L.K.[O=C([C@H](Cc1cccc2ccccc12)N[*:1])[*:2]].F.[O=C([C@H](Cc1cccc2ccccc12)N[*:1])[*:2]].[am]}$$$$V2.0; N-terminus assumed)
VALUE: 4.43
--
COMPOUND: CC(C)C[C@H](NC(=O)[C@H](CCCCN)NC(=O)[C@@H](N)CCCCN)C(=O)N[C@@H](CCCCN)C(=O)N[C@@H](Cc1ccc2ccccc2c1)C(=O)N[C@@H](Cc1ccccc1)C(=O)N[C@@H](Cc1ccc2ccccc2c1)C(N)=O [Compound 1] (HELM PEPTIDE1{K.K.L.K.[O=C([C@H](Cc1ccc2ccccc2c1)N[*:1])[*:2]].F.[O=C([C@H](Cc1ccc2ccccc2c1)N[*:1])[*:2]].[am]}$$$$V2.0)
VALUE: < 3.82
--
COMPOUND: CCCC[C@H](NC(=O)[C@H](CCCCN)NC(=O)[C@H](CCCCN)NC(=O)[C@@H](N)CCCCN)C(=O)N[C@@H](Cc1cccc2ccccc12)C(=O)N[C@@H](Cc1ccccc1)C(=O)N[C@@H](Cc1cccc2ccccc12)C(N)=O [Compound 20] (HELM PEPTIDE1{K.K.K.[Nle].[O=C([C@H](Cc1cccc2ccccc12)N[*:1])[*:2]].F.[O=C([C@H](Cc1cccc2ccccc12)N[*:1])[*:2]].[am]}$$$$V2.0)
VALUE: < 3.82
--
COMPOUND: CCCC[C@H](NC(=O)[C@H](CCCCN)NC(=O)[C@H](CCCCN)NC(=O)[C@@H](N)CCCCN)C(=O)N[C@@H](Cc1ccc2ccccc2c1)C(=O)N[C@@H](Cc1ccc(O)cc1)C(=O)N[C@@H](Cc1ccc2ccccc2c1)C(N)=O [Compound 22] (HELM PEPTIDE1{K.K.K.[Nle].[O=C([C@H](Cc1ccc2ccccc2c1)N[*:1])[*:2]].Y.[O=C([C@H](Cc1ccc2ccccc2c1)N[*:1])[*:2]].[am]}$$$$V2.0)
VALUE: 4.15
--
COMPOUND: CC(C)C[C@H](NC(=O)[C@H](Cc1cccc2ccccc12)NC(=O)[C@H](Cc1ccccc1)NC(=O)[C@@H](N)Cc1cccc2ccccc12)C(=O)N[C@@H](CCCCN)C(=O)N[C@@H](CCCCN)C(=O)N[C@@H](CCCCN)C(N)=O [Compound 5] (HELM PEPTIDE1{[N[C@@H](Cc1cccc2ccccc12)C(=O)[*:2]].F.[O=C([C@H](Cc1cccc2ccccc12)N[*:1])[*:2]].L.K.K.K.[am]}$$$$V2.0)
VALUE: < 3.82
--
COMPOUND: CC(C)C[C@H](NC(=O)CN(CCCCN)C(=O)CN(CCCCN)C(=O)CNCCCCN)C(=O)N[C@@H](Cc1ccc2ccccc2c1)C(=O)N[C@@H](Cc1ccccc1)C(=O)N[C@@H](Cc1ccc2ccccc2c1)C(N)=O [Compound 23] (H-[Nlys][Nlys][Nlys]L[2Nal]F[2Nal]-NH2)
VALUE: < 3.82
--
COMPOUND: CC(C)C[C@@H](NC(=O)[C@H](CCCCN)NC(=O)[C@@H](N)CCCCN)C(=O)N[C@@H](CCCCN)C(=O)N[C@H](Cc1cccc2ccccc12)C(=O)N[C@H](Cc1ccccc1)C(=O)N[C@H](Cc1cccc2ccccc12)C(N)=O [Compound 10] (HELM PEPTIDE1{K.K.[dL].K.[O=C([C@@H](Cc1cccc2ccccc12)N[*:1])[*:2]].[dF].[O=C([C@@H](Cc1cccc2ccccc12)N[*:1])[*:2]].[am]}$$$$V2.0)
VALUE: < 3.82
